- System: IGROV1 ovarian
- procedure_text: NCI-60 one-dose screen, 48 h (100 = growth as untreated, 0 = no growth, -100 = all killed)
- experimental_context: 10 µM unless noted
About 83,000 compounds went through this panel and 20% of them were active in at least one assay; those are over-represented in the sample as a whole.
// reported growth for each item listed
Value expressed in %; do not type the unit.

Illustrative cases are given below, each with its answer.
COc1ccc(CCNC2=CC(=O)CCC2)cc1OC	113
COc1ccc(/C=C(\C#N)c2cc(OC)c3c(c2)OCO3)cc1	16.3
Cc1ccc(/C=C2\CN(C(=O)CCN3CCC(=NO)CC3)C/C(=C\c3ccc(C)cc3)C2=O)cc1	-14
O=C1/C(=C/c2ccccc2)Oc2ccc(O)c(I)c21	68.3
CCNc1nc(S(=O)(=O)CC)nc2ccccc12	104
CCC1=CCC[C@@]2(C)CCC[C@@]3(C)CCCC(C)(C)[C@]1([O-])[O+]32	105
CCCCCCCCCCCC(=O)NCCC[N+](C)(C)CC(=O)[O-]	76.7
Cc1nc2c3c(ncn2n1)Oc1c(c(=O)[nH]c2ccccc12)C3c1ccc(Cl)cc1 (stereo unspecified)	89.3
COc1ccc(-c2c(N)n[nH]c2-c2cc3c(c(OC)c2OC)OCO3)cc1	96.4
CN(C[C@H]1Cc2c(cccc2N2CCN(c3ncccn3)CC2)CN1)[C@H]1CCCc2cccnc21	37.1

Then there is this molecule:
What growth value was documented for this molecule, Cc1cc(N/N=C/c2nc(-c3ccc(Br)cc3)oc2C)c2cc(Cl)ccc2n1 ?
92.6

###

- System: 786-0 renal
- procedure_text: NCI-60 one-dose screen, 48 h (100 = growth as untreated, 0 = no growth, -100 = all killed)
- experimental_context: 10 µM unless noted
This is part of a sample that, as a whole, favours compounds with a hit. Of some 83,000 tested, about 20% had one in any assay.
assay_metric: growth (%)
Value expressed in %; do not type the unit.

Illustrative cases are given below, each with its answer.
O=Nc1c(-c2cccc([N+](=O)[O-])c2)nc2ncccn12	93.9
CCCOC(=O)n1cccc1	98.5
O=C(/C=C/c1cc(-c2ccc3c(c2)OCO3)n[nH]1)c1ccc2c(c1)OCO2	99.2
C=C1CCC2C3(C)COC(c4c(OC)cccc4OC)OC3CCC2(C)C1C/C=C1/C(=O)OCC1O (stereo not given)	90.3
Cc1ccc(S(=O)(=O)NCCCNc2cc(-c3cn(C(C)(C)C)nc3-c3cccc(O)c3)ccn2)cc1	56.6

What growth value was documented for this compound, COc1cc(C2CC(c3ccc4c(c3)OCO4)=NN2C=O)cc(OC)c1OC (stereo not given) ?
37.4

What growth value was documented for this compound, CCCCCCCCCCCCNC(=O)[C@H]1CSC(c2cc(Br)cs2)N1 (stereo not given in full) ?
38.3

What growth value was documented for this compound, Cc1ccc2nc(Cl)cc(=O)n2c1 ?
100

What growth value was documented for this compound, COc1ccc(Nc2[nH]n3c(=O)cc(C)nc3c2C(N)=O)c(OC)c1 ?
99.1

What growth value was documented for this compound, O=[N+]([O-])c1ccc(-c2cn(-c3ccccc3)c(-c3ccccc3)n2)cc1 ?
92.5

What growth value was documented for this compound, O=[N+]([O-])c1ccc(C(c2ccccc2)c2ccccc2)cc1 ?
99.4

What growth value was documented for this compound, CCN(CC)CCCNc1nccc2ccc(Cl)cc12 ?
104

What growth value was documented for this compound, CCN(CC)CCOc1ccc(/C(=C(/C)c2ccccc2)c2ccc(OC(C)=O)cc2)cc1 ?
98.6

What growth value was documented for this compound, O=C(Oc1ccccc1[N+](=O)[O-])C1CCCN1C(=O)OCc1ccccc1 (stereo not given) ?
98.6

What growth value was documented for this compound, COc1cc(-c2nn(-c3cccc(NC(=O)Nc4ccc(Cl)c(C(F)(F)F)c4)c3)cc2-c2ccncc2)ccc1Cl ?
15.1

What growth value was documented for this compound, Clc1ccccc1-c1nc2ccccc2[nH]1 ?
46.3

What growth value was documented for this compound, CCN(CC)c1ccc(CNc2ccnc3ccccc23)cc1 ?
72.5

What growth value was documented for this compound, CC(C)(C)n1cc(-c2ccnc(NCCNS(=O)(=O)c3ccc(C(F)(F)F)cc3)c2)c(-c2cccc(O)c2)n1 ?
33.9

What growth value was documented for this compound, COc1cc(-c2nn(-c3cccc(NC(=O)c4ccc(N5CCOCC5)c(C(F)(F)F)c4)c3)cc2-c2ccncc2)ccc1Cl ?
-3.26

What growth value was documented for this compound, CCCCCCN1CSC(=S)N(CCCCCC)C1 ?
99.4

What growth value was documented for this compound, COc1ccc(S(=O)(=O)NCCCNc2nccc(-c3c(-c4cccc([N+](=O)[O-])c4)nc4sccn34)n2)cc1 ?
66.6

What growth value was documented for this compound, COc1c2occc2c(OC)c2c(=O)c(-c3cc(-c4ccc(F)cc4)c(C#N)c(N)n3)c(C)oc12 ?
51.2

What growth value was documented for this compound, Cc1ccc(NS(=O)(=O)c2cc(C)ccc2C)cc1 ?
61

What growth value was documented for this compound, Cc1ccc(CSC(=N)N)cc1C ?
103

What growth value was documented for this compound, CC12CCC3C4(C)COC(c5ccccc5Cl)OC4CCC3(C)C1CC(C1=CCOC1=O)O2 (stereo not given) ?
-89.9

What growth value was documented for this compound, COc1cc2c(cc1OCCCN1CCN(CCCn3c4ccccc4c4ccccc43)CC1)N=C[C@@H]1CCCN1C2=O ?
-70.3

What growth value was documented for this compound, Cn1c(=O)cc(NC(=O)CN2CCN(c3cc4c(cc3F)c(=O)c(C(=O)O)cn4C3CC3)CC2)[nH]c1=O ?
102

What growth value was documented for this compound, Cn1cc(-c2cnc3ccc(NC(=O)Nc4ccc(F)c(Br)c4)cc3n2)cn1 ?
38.7
